Provide the reported Human α4β2 Ca Flux Imax [29C/HS] of each item.
# targetUnderTest: human α4β2 (HS) (Homo sapiens, UniProt P17787+P43681)
# Sequence (P43681 29-627 limits assumed): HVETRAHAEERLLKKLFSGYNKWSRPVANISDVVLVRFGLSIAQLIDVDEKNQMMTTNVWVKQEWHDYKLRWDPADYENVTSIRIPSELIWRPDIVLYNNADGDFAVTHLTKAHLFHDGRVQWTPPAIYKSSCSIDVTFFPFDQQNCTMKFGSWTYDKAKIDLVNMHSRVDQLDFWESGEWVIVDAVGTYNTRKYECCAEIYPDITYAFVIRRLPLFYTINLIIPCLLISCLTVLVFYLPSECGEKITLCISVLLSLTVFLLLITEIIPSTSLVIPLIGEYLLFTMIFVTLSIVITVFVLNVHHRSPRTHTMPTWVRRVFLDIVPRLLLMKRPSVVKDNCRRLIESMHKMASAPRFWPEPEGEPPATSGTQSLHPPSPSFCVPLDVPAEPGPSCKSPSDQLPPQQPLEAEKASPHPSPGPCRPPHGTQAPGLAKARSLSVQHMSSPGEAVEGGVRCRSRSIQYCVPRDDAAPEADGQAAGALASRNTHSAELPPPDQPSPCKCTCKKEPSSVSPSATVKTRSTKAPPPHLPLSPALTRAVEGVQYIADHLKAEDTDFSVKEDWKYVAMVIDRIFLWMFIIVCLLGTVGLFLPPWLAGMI
# Sequence (P17787 26-502): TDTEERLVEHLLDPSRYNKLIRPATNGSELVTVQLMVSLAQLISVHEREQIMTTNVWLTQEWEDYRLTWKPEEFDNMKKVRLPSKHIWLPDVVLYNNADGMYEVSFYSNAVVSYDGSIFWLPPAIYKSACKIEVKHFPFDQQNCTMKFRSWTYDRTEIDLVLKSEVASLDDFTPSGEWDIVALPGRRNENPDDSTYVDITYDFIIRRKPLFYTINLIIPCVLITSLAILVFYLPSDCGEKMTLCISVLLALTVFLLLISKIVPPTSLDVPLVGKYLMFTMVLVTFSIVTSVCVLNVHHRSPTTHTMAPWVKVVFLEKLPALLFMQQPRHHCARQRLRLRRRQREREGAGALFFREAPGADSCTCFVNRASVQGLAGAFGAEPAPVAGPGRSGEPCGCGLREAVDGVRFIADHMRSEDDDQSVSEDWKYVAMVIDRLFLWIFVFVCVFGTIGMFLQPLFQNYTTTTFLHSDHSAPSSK
# assayRemarks: Calcium flux inhibition, SH-EP1-human α4β2 treated at 29° C. (HS)
# Format: cell-based
# conditionContext: 29° C.-treated cells (HS), nicotine 1 μM
Numbers only, in % inh.

# annotated cases, reported Human α4β2 Ca Flux Imax [29C/HS] shown
CN[C@]12CCC[C@H]1[C@@H]1CC[C@H]2C1	96
CNC12CCCC1(CO)C1CCC2C1 (stereo not shown)	99
CN(C)[C@@]12CCC[C@@H]1[C@H]1CC[C@@H]2C1	96
CC[C@]12CCC[C@@]1(NC)[C@@H]1CC[C@H]2C1	100
CN(C)[C@]12CCC[C@H]1[C@@H]1CC[C@H]2C1	99

Each compound below has a recorded value; state its Human α4β2 Ca Flux Imax [29C/HS].
1. CCCCC12CCCC1(NC)C1CCC2C1 (stereo not shown)
2. CCCC12CCCC1(NC)C1CCC2C1 (stereo not shown)

Result:
99
100
